Ref: PubChem BioAssay (NCI)

Listed below: growth values for each entry.
System: IGROV1 ovarian
PROCEDURE TEXT: NCI-60 one-dose screen, 48 h (100 = growth as untreated, 0 = no growth, -100 = all killed)
MEASUREMENT SETUP: 10 µM unless noted
Compounds without any hit were thinned out: in the full panel of roughly 83,000, 20% have a hit.
TEST READOUT: growth (%)

INSERT INTO results (molecule, test_readout, scale_unit, observed) VALUES
  ('CCCCSc1ncnc2c1ncn2C1CCCCO1 (stereo not given)', 'growth', '%', 106),
  ('CNCCCn1c2c(c3ccc(Cl)cc3c1=O)C(=O)c1cc(OC)cnc1-2', 'growth', '%', 50.3),
  ('COc1ccc(-n2nc(C(=O)Nc3ccc(F)cc3)nc2-c2cc(OC)c(OC)c(OC)c2)cc1', 'growth', '%', 98.1),
  ('C=C1C(=O)O[C@H]2[C@H]1CC/C(COC(=O)N[C@@H](Cc1c[nH]c3ccccc13)C(=O)OC)=C\CC[C@@]1(C)O[C@@H]21', 'growth', '%', 0.0104),
  ('C[C@@H]1N=C(c2ccc3ccccc3c2)Nc2nc3ccccn3c2C1=O', 'growth', '%', 32.1),
  ('Brc1ccsc1Br', 'growth', '%', 103),
  ('O=C1OC(/C=C/c2ccccc2)=NC/1=C/c1ccccc1[N+](=O)[O-]', 'growth', '%', 79.6),
  ('COc1ccc(-c2ccc(-c3ccc(C(=N)N)s3)s2)cc1', 'growth', '%', -57.2),
  ('COc1cc(C2C(C#N)=C(N)Oc3cc4c(cc32)OCO4)cc2c1OCO2 (stereo not given)', 'growth', '%', 33.3),
  ('COc1ccc(/C=C/c2nc(NCCCN(C)C)c3ccccc3n2)cc1', 'growth', '%', 49.9);
